Assayed System: B1 bradykinin receptor (Homo sapiens, UniProt P46663)
Sequence (P46663 whole entry): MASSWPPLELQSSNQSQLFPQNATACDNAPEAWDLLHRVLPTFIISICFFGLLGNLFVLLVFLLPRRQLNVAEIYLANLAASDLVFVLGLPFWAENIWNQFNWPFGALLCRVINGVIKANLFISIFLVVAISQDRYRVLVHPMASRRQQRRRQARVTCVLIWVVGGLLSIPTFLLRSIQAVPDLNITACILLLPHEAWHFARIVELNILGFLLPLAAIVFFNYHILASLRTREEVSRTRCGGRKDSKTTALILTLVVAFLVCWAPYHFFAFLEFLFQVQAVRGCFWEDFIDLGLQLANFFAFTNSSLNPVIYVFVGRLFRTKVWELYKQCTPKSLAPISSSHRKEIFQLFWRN
Assay Explanation: Plasma concentration in hB1 knock-in-mouse at 20 mg/kg, po after 1 hr
Format: ADME, organism-based
Parameters: dose 20 mg/kg, route oral
Readout Name: concentration at 1 h (µM)
Enter your answer as a number in µM; do not include the unit.

# input Suppose we examine the compound COC(=O)c1c(Cl)cccc1-c1ccc([C@@H](C)NC(=O)C2(NC(=O)C(F)(F)F)CC2)c(F)c1 ; what concentration at 1 h value has been reported?
# output 3.5

====

Assayed System: UniProt:P46663
Assay Explanation: Plasma concentration in hB1 knock-in-mouse at 6 mg/kg, po after 1 hr
Assay type: ADME, organism-based
Set-up: dose 6 mg/kg, route oral
Readout Name: concentration at 1 h
Entry format: amount then unit.

# input Return reported concentration at 1 h; argument: COC(=O)c1c(Cl)cccc1-c1ccc([C@@H](C)NC(=O)C2(NC(=O)C(F)(F)F)CC2)c(F)c1 [MK0686]
# output 1000 nM
